src = ChEMBL document CHEMBL3885881

Species: Rattus norvegicus
Assay Protocol: DrugMatrix - Regimen: Daily Repeat
Format: toxicity, organism-based, Sprague-Dawley
Set-up: regimen Daily Repeat, gender Male, age 6-8 weeks
Settings: in vivo, ip, 0 mg/kg, […], tissue Blood, route intraperitoneal, dose level Control, time 28 day, vehicle 100 % SALINE
Quantity Name: ABSOLUTE LYMPHOCYTE

[in] I would be grateful if you could share the reported ABSOLUTE LYMPHOCYTE for CADMIUM DICHLORIDE .
[out] 9910 cells/µL

* * *

Entries and their PLATELET COUNT
Species on record: Rattus norvegicus
Assay Protocol: DrugMatrix - Regimen: Daily Repeat
Format: toxicity, organism-based, Sprague-Dawley
Design: regimen Daily Repeat, gender Male, age 6-8 weeks
Settings: in vivo, po, 0 mg/kg, 120 h, tissue Blood, route oral GAVAGE, dose level Control, time 5 day, vehicle .5 % CMC
The response must be a number in x10E3/uL with no trailing unit.

Please review the entries below; each comes with its answer.
Compound	Test Value
OC(CCN1CCCCC1)(c1ccccc1)C1CCCCC1 (centres undefined) [TRIHEXYPHENIDYL]	1248.17
CC[C@@H](CO)NCCN[C@@H](CC)CO [ETHAMBUTOL]	1177
C#C[C@]1(O)CC[C@H]2[C@@H]3CCc4cc(OC)ccc4[C@H]3CC[C@@]21C [MESTRANOL]	1274

Would you kindly look at the next entry?
[in] Which PLATELET COUNT value belongs to CO[C@H]1/C=C/O[C@@]2(C)Oc3c(C)c(O)c4c(c3C2=O)C2=NC3(CCN(CC(C)C)CC3)NC2=C(NC(=O)/C(C)=C\C=C\[C@H](C)[C@H](O)[C@@H](C)[C@@H](O)[C@@H](C)[C@H](OC(C)=O)[C@@H]1C)C4=O [RIFABUTIN] ?
[out] 1274

* * *

Species on record: Rattus norvegicus
Assay Protocol: DrugMatrix - Regimen: Daily Repeat
Format: toxicity, organism-based, Sprague-Dawley
Parameters: regimen Daily Repeat, gender Male, age 6-8 weeks
Settings: in vivo, ip, 40 mg/kg, […], tissue Blood, route intraperitoneal, dose level High, time 14 day, vehicle 100 % SALINE
Quantity Name: ABSOLUTE SEGMENTED NEUTROPHIL
Include the unit right after the number.

[in] Requested field: ABSOLUTE SEGMENTED NEUTROPHIL. Item: CCN[C@@H]1C[C@H](N)[C@@H](O[C@H]2OC(CN)=CC[C@H]2N)[C@H](O)[C@H]1O[C@H]1OC[C@](C)(O)[C@H](NC)[C@H]1O
[out] 980 cells/µL

* * *

ABSOLUTE LYMPHOCYTE for assorted compounds
Species: Rattus norvegicus
Assay Protocol: DrugMatrix - Regimen: Daily Repeat
Type: toxicity, organism-based, Sprague-Dawley
Parameters: regimen Daily Repeat, gender Male, age 6-8 weeks
Settings: in vivo, po, 0 mg/kg, 72 h, tissue Blood, route oral GAVAGE, dose level Control, time 3 day, vehicle 100 % WATER
Report as a plain number; the unit CELLS/uL is understood.

>>> df
                                   compound  units_label  test_value
0  CC(C)C[C@H](NC(=O)[C@@H](O)[C@H](N)Cc1ccccc1)C(=O)O     CELLS/uL    13654.17
1       Nc1ccn([C@@H]2CS[C@H](CO)O2)c(=O)n1     CELLS/uL      8482.5
2  CC(C)NCC(O)COc1cccc2ccccc12 (centres undefined)     CELLS/uL    10225.67
3  C[C@@H]1C[C@@H]([C@H](O)CC2CC(=O)NC(=O)C2)C(=O)[C@@H](C)C1 [CYCLOHEXIMIDE]     CELLS/uL       14357
4                    ClC(Cl)Cl [CHLOROFORM]     CELLS/uL    12090.17

[in] Please look up its ABSOLUTE LYMPHOCYTE: COC(=O)C1=C(C)NC(C)=C(C(=O)OCC(C)C)C1c1ccccc1[N+](=O)[O-] (centres undefined)
[out] 7802.17

[in] Likewise for CC(C)(C)c1ccc(C(=O)CCCN2CCC(OC(c3ccccc3)c3ccccc3)CC2)cc1 ?
[out] 12677.83

[in] Check C[N+](C)(C)CCO.[Cl-] [CHOLINE CHLORIDE] too.
[out] 10386.33

[in] Would you mind doing Cc1ncc([N+](=O)[O-])n1CCO as well?
[out] 12090.17
